# assay: Part 2: pharmacokinetics of rimegepant 75 mg ODT alone or coadministered with quinidine 600 mg, 2-way crossover
# Assay type: in vivo, human
# condition: human, plasma, po, 75 mg, part 2, rimegepant 75 mg ODT alone, single oral dose, fasted, plasma, N = 12; read-out: Cmax, geometric least squares mean
valueKind: Cmax
Answer by giving the amount and then stating its unit.

Request the reported Cmax associated with N[C@@H]1c2cccnc2[C@H](OC(=O)N2CCC(n3c(=O)[nH]c4ncccc43)CC2)CC[C@H]1c1cccc(F)c1F [Rimegepant]
797 ng/mL

====

# assay: Part 1: pharmacokinetics of rimegepant 75 mg ODT alone or coadministered with cyclosporine 200 mg, 2-way crossover
# condition: human, plasma, po, 75 mg
valueKind: half-life (h)
Provide the reading as a plain figure in h.

Find the recorded half-life belonging to N[C@@H]1c2cccnc2[C@H](OC(=O)N2CCC(n3c(=O)[nH]c4ncccc43)CC2)CC[C@H]1c1cccc(F)c1F [Rimegepant] and report it.
7.59

====

# assay: Part 1: pharmacokinetics of rimegepant 75 mg ODT alone or coadministered with cyclosporine 200 mg, 2-way crossover
# condition: human, plasma, po, 75 mg, AUC0‐t, arithmetic mean (percent coefficient of variation), part 1, rimegepant ODT 75 mg alone, single oral dose, N 15
valueKind: AUC
Mention the unit after the number when you answer.

So what does the record say about AUC for N[C@@H]1c2cccnc2[C@H](OC(=O)N2CCC(n3c(=O)[nH]c4ncccc43)CC2)CC[C@H]1c1cccc(F)c1F ?
4250 ng·h/mL

====

# assay: Part 2: pharmacokinetics of rimegepant 75 mg ODT alone or coadministered with quinidine 600 mg, 2-way crossover
# Type: in vivo, human
# condition: human, plasma, po, 75 mg, part 2, rimegepant ODT 75 mg alone, single oral dose, N 12; read-out: AUC0‐inf, arithmetic mean (percent coefficient of variation)
valueKind: AUC (ng·h/mL)
Write it as a number; the unit ng·h/mL goes unstated.

If you can, please state the reported AUC value of N[C@@H]1c2cccnc2[C@H](OC(=O)N2CCC(n3c(=O)[nH]c4ncccc43)CC2)CC[C@H]1c1cccc(F)c1F .
4540

====

# assay: Part 1: pharmacokinetics of rimegepant 75 mg ODT alone or coadministered with cyclosporine 200 mg, 2-way crossover
# condition: human, plasma, po, 75 mg, Cmax, arithmetic mean (percent coefficient of variation), part 1, rimegepant ODT 75 mg alone, single oral dose, N 15
# Protocol: This phase 1, open‐label, randomized, single‐dose, 2‐way crossover, 2‐part, drug‐drug interaction study was conducted at a single center (Syneos Health, Québec, Canada). […] In each period, 20 blood samples for PK assessment were collected at the following time points: before dosing; 5, 10, 20, 30, 40, and 50 minutes after dosing; and 1, 1.5, 2, 2.5, 3, 4, 5, 6, 8, 12, 24 (day 2), 48 (day 3), and 72 (day 4) hours after dosing. […] The quantifiable range was 10 to 5000 ng/mL. […]
valueKind: Cmax (ng/mL)
Note: unit ng/mL is implicit; provide only the numeric part.

Quick one: Cmax for N[C@@H]1c2cccnc2[C@H](OC(=O)N2CCC(n3c(=O)[nH]c4ncccc43)CC2)CC[C@H]1c1cccc(F)c1F [Rimegepant] ?
862

====

# assay: Part 2: pharmacokinetics of rimegepant 75 mg ODT alone or coadministered with quinidine 600 mg, 2-way crossover
# Type: in vivo, human
# condition: human, plasma; part 2, rimegepant ODT 75 mg alone, single oral dose, N 12; read-out: t½el, arithmetic mean (percent coefficient of variation) (converted)
valueKind: half-life (h)
Output spec: scalar in h, unitless text.

Which value of half-life has been reported for N[C@@H]1c2cccnc2[C@H](OC(=O)N2CCC(n3c(=O)[nH]c4ncccc43)CC2)CC[C@H]1c1cccc(F)c1F in the records?
8.56

====

# assay: Part 1: pharmacokinetics of rimegepant 75 mg ODT alone or coadministered with cyclosporine 200 mg, 2-way crossover
# condition: human, plasma, po, 75 mg, Cmax, geometric least squares mean, part 1, rimegepant 75 mg ODT alone, single oral dose, fasted, N = 15
valueKind: Cmax
Enter the number, and then the unit.

Name the recorded Cmax for N[C@@H]1c2cccnc2[C@H](OC(=O)N2CCC(n3c(=O)[nH]c4ncccc43)CC2)CC[C@H]1c1cccc(F)c1F [Rimegepant] .
824 ng/mL

====

# assay: Part 2: pharmacokinetics of rimegepant 75 mg ODT alone or coadministered with quinidine 600 mg, 2-way crossover
# Format: in vivo, human
# condition: human, plasma, po, 75 mg, part 2, rimegepant 75 mg ODT alone, single oral dose, fasted, plasma, N = 12; read-out: AUC0‐t, geometric least squares mean
valueKind: AUC (ng·h/mL)
Use ng·h/mL as the unit, but write only the number.

Which AUC value is on record for N[C@@H]1c2cccnc2[C@H](OC(=O)N2CCC(n3c(=O)[nH]c4ncccc43)CC2)CC[C@H]1c1cccc(F)c1F ?
4400

====

# assay: Part 2: pharmacokinetics of rimegepant 75 mg ODT alone or coadministered with quinidine 600 mg, 2-way crossover
# Type: in vivo, human
# condition: human, plasma, po, 75 mg, part 2, rimegepant 75 mg ODT alone, single oral dose, fasted, plasma, N = 12; read-out: AUC0‐inf, geometric least squares mean
valueKind: AUC
Answer format: value, then unit.

If you can, please state the reported AUC value of N[C@@H]1c2cccnc2[C@H](OC(=O)N2CCC(n3c(=O)[nH]c4ncccc43)CC2)CC[C@H]1c1cccc(F)c1F [Rimegepant] .
4410 ng·h/mL

====

# assay: Part 2: pharmacokinetics of rimegepant 75 mg ODT alone or coadministered with quinidine 600 mg, 2-way crossover
# Assay type: in vivo, human
# condition: human, plasma; part 2, rimegepant ODT 75 mg coadministered with quinidine 600 mg, single oral dose, N 12; read-out: tmax, median (range)
valueKind: Tmax (h)
// units = h; emit number, no label

Return reported Tmax; argument: N[C@@H]1c2cccnc2[C@H](OC(=O)N2CCC(n3c(=O)[nH]c4ncccc43)CC2)CC[C@H]1c1cccc(F)c1F [Rimegepant]
2.8

====

# assay: Part 1: pharmacokinetics of rimegepant 75 mg ODT alone or coadministered with cyclosporine 200 mg, 2-way crossover
# condition: human, plasma, po, 75 mg, AUC0‐inf, geometric least squares mean, part 1, rimegepant 75 mg ODT alone, single oral dose, fasted, N = 15
valueKind: AUC
Value and unit, in that order.

What value of AUC has been reported for the following compound? N[C@@H]1c2cccnc2[C@H](OC(=O)N2CCC(n3c(=O)[nH]c4ncccc43)CC2)CC[C@H]1c1cccc(F)c1F [Rimegepant]
4110 ng·h/mL
